Recorded values, source patent US8741906B2.

Overview of recorded EC50 for various compounds
Biological target: human CB1 receptors (Homo sapiens, UniProt P21554)
Construct: expressed in transfected cells; host or cells: CHO cells
Sequence (P21554 whole entry): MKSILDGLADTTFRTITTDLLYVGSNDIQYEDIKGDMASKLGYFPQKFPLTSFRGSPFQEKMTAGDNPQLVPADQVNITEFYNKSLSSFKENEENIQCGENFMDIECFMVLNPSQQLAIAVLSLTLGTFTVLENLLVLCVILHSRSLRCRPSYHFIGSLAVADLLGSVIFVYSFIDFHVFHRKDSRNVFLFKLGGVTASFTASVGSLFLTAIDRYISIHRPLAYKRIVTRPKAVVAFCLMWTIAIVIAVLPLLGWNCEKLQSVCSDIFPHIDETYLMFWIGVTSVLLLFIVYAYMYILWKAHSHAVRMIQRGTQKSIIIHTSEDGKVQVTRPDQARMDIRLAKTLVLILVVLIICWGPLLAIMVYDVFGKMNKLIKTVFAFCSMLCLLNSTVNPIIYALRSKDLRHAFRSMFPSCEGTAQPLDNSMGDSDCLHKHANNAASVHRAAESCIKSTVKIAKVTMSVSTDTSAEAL
Test: functional cAMP assay, human CB1
Format: cell-based
Settings: CHO cells expressing human CB1, cAMP; read-out: human CB1 EC50
Kindly provide the numeric value in µM only, without the unit symbol.

Study these solved cases before continuing.
Enquiry: # EC50 lookup, item `CC(C)(C)c1nc(N2CCOCC2(C)C)c2nnn(Cc3ccccc3Cl)c2n1`
Return: 0.476

Enquiry: # repeat for `CC(C)(C)c1nc(N2CCCCC2)c2nnn(Cc3ccccc3Cl)c2n1`
Return: 0.555

Enquiry: # repeat for `CC(C)(C)c1nc(N2CCC(F)(F)C2)c2nnn(Cc3c(Cl)ccc(F)c3Cl)c2n1`
Return: 0.167

Enquiry: # repeat for `Cn1nnnc1Cn1nnc2c(N3CC(F)(F)C(F)(F)C3)nc(C(C)(C)C)nc21`
Return: 2

Enquiry: # repeat for `CC(C)(C)c1nc(N2CCC(F)(F)C2)c2nnn(Cc3c(F)ccc(F)c3Cl)c2n1`
Return: 0.143

Further cases:
Enquiry: # EC50 lookup, item `CC(C)(C)c1nc(N2CCC[C@@H](O)C2)c2nnn(Cc3ccccc3Cl)c2n1`
Return: 2.27

Enquiry: # repeat for `CC(C)(C)c1nc(N2CC[C@@H](F)C2)c2nnn(Cc3ccccc3Cl)c2n1`
Return: 0.991

Enquiry: # repeat for `CC(C)(C)c1nc(N2CCC[C@H]2CO)c2nnn(Cc3ccccc3Cl)c2n1`
Return: 0.361

Enquiry: # repeat for `CC(C)(C)c1nc(N2CC[C@H](O)C2)c2nnn(Cc3ccccc3Cl)c2n1`
Return: 0.866

====

Target: human CB1 receptors (Homo sapiens, UniProt P21554)
Construct: expressed in transfected cells; host or cells: CHO cells
Experiment: functional cAMP assay, human CB1
Type: cell-based
Settings: CHO cells expressing human CB1, cAMP; read-out: human CB1 EC50
Overview of recorded EC50 for various compounds

Enquiry: # EC50 lookup, item `CC(C)(C)c1nc(N2CCC(F)(F)C2)c2nnn(Cc3c(F)cccc3Cl)c2n1`
Return: 41 nM

Enquiry: # repeat for `Cc1nnc(Cn2nnc3c(N4CC(F)(F)C(F)(F)C4)nc(C(C)(C)C)nc32)n1C`
Return: > 10000 nM

Enquiry: # repeat for `CC(C)(C)c1nc(N2CC3(COC3)C2)c2nnn(Cc3ccccc3S(C)(=O)=O)c2n1`
Return: 137 nM

Further cases:
Enquiry: # EC50 lookup, item `Cc1nnc(Cn2nnc3c(N4CC[C@H](O)C4)nc(C(C)(C)C)nc32)n1C`
Return: > 10000 nM

Enquiry: # repeat for `Cn1c(Cn2nnc3c(N4CCC(F)(F)C4)nc(C(C)(C)C)nc32)nnc1S(C)(=O)=O`
Return: > 10000 nM

Enquiry: # repeat for `Cc1nnc(Cn2nnc3c(N4CCC(F)(F)C4)nc(C(C)(C)C)nc32)o1`
Return: > 10000 nM

Enquiry: # repeat for `Cc1noc(Cn2nnc3c(N4CC[C@](C)(O)C4)nc(C(C)(C)C)nc32)n1`
Return: > 10000 nM

Enquiry: # repeat for `CC(C)(C)c1nc(N2CCC(F)(F)C2)c2nnn(CC(=O)c3ccccc3Cl)c2n1`
Return: 250 nM

====

Target: human CB2 receptors (Homo sapiens)
Construct: expressed in transfected cells; host or cells: CHO cells
Sequence (P34972 whole entry): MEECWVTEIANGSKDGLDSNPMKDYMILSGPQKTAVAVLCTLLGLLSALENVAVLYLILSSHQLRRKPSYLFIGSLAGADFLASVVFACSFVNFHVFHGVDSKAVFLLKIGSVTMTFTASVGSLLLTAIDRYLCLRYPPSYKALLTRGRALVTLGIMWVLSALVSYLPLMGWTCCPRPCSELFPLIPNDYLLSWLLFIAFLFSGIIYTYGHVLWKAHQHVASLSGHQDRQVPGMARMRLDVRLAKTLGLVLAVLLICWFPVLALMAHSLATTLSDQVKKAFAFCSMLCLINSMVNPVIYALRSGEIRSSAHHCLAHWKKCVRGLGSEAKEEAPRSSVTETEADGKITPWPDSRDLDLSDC
Experiment: functional cAMP assay, human CB2
Assay type: cell-based
Details: CHO cells expressing human CB2, cAMP; read-out: human CB2 EC50
QUANTITY NAME: EC50
Answer format reminder: number followed by unit.

Study these solved cases before continuing.
Enquiry: # EC50 lookup, item COC(=O)C1CN(c2nc(C(C)(C)C)nc3c2nnn3Cc2ccccc2Cl)C1 [Example 197]
Return: 257 nM

Enquiry: # repeat for CC(C)(C)c1nc(N2CCOCC2(C)C)c2nnn(Cc3ccccc3Cl)c2n1 [Example 24]
Return: 3 nM

Enquiry: # repeat for Cc1nnc(Cn2nnc3c(N4CC5(COC5)C4)nc(C(C)(C)C)nc32)n1C [Example 184]
Return: 112 nM

Enquiry: # repeat for Cc1nonc1Cn1nnc2c(N3CC(F)(F)C(F)(F)C3)nc(C(C)(C)C)nc21 [Example 173]
Return: 0.3 nM

Enquiry: # repeat for CC1(Cn2nnc3c(N4CCC(F)(F)C4)nc(C(C)(C)C)nc32)COC1 [Example 114]
Return: 0.4 nM

Further cases:
Enquiry: # EC50 lookup, item CC(C)(C)c1nc(N2CC[C@H](O)C2)c2nnn(Cc3ccccc3S(C)(=O)=O)c2n1 [Example 143]
Return: 0.1 nM

Enquiry: # repeat for Cc1nnc(Cn2nnc3c(N4CC(F)(F)C(F)(F)C4)nc(C(C)(C)C)nc32)o1 [Example 175]
Return: 1.5 nM

Enquiry: # repeat for CC(C)(C)c1nc(N2CCC(F)(F)C2)c2nnn(Cc3ccc(F)cc3Cl)c2n1 [Example 71]
Return: 0.4 nM

Enquiry: # repeat for CC(C)(C)COc1nc(C(C)(C)C)nc2c1nnn2Cc1ccccc1Cl [Example 213]
Return: 59.6 nM

Enquiry: # repeat for CC(C)(C)c1nc(N2CCC(F)(F)C2)c2nnn(CC(O)c3ccccc3)c2n1 (centres unmarked) [Example 88]
Return: 0.9 nM

Enquiry: # repeat for CC(C)(C)c1nc(N2CCC(F)(F)C2)c2nnn(Cc3ccc(Cl)cc3Cl)c2n1 [Example 68]
Return: 0.7 nM

Enquiry: # repeat for CC(C)(C)c1nc(N2CC[C@](C)(O)C2)c2nnn(Cc3ncccc3Cl)c2n1 [Example 224-a]
Return: 1.1 nM

Enquiry: # repeat for CC(C)(C)c1nc(N2CCC(F)(F)C2)c2nnn(CC(=O)c3ccc(Cl)cc3)c2n1 [Example 116]
Return: 3 nM
